target: MAP3K12 (human) (UniProt Q12852); experiment: KINOMEscan competition binding; details: compound 1.0 µM
Sequence (Q12852 whole entry, looked up): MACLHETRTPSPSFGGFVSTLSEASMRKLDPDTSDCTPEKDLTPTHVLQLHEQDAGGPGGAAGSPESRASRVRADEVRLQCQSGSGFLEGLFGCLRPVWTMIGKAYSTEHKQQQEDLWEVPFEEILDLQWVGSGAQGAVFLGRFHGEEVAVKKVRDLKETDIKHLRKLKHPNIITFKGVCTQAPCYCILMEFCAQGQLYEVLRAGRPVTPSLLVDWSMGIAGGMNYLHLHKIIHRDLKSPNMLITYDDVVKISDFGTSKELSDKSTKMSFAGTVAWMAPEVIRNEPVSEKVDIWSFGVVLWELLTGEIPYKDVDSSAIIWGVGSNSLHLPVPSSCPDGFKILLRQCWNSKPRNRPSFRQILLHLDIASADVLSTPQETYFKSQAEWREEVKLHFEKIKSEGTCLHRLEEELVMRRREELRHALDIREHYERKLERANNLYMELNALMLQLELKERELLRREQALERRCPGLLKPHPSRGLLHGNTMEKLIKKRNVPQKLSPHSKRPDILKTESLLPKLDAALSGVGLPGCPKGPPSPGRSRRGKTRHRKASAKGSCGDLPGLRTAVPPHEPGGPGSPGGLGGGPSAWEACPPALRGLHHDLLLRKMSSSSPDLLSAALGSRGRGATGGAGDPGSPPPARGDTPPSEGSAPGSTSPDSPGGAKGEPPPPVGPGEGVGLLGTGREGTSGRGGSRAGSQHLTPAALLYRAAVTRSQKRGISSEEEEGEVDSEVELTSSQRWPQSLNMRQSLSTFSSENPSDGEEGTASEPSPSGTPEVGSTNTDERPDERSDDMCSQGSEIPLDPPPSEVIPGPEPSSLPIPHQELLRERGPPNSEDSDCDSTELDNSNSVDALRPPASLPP
Listing of recorded kinase still bound, per cent of control by entry.
Give the quantity in %, number only.

Example molecules with recorded kinase still bound, per cent of control:
>>> assay_result("CN(C)C/C=C/C(=O)Nc1cccc(C(=O)Nc2ccc(Nc3nccc(/C(C#N)=C4\\Nc5ccccc5S4)n3)cc2)c1")
100
>>> assay_result("Cc1cc(NC(=O)c2cccc(NC(=O)/C=C/CN(C)C)c2)ccc1Nc1nccc(-c2cccnc2)n1")
99
>>> assay_result("CN(C)C/C=C/C(=O)Nc1cccc(C(=O)Nc2ccc(Nc3nccc(-c4c(-c5ccccc5)nn5ccccc45)n3)cc2)c1")
84

GET kinase still bound, per cent of control where system = MAP3K12 (human) (UniProt Q12852) and item = `CN(C)C/C=C/C(=O)Nc1cccc(C(=O)Nc2ccc(Nc3nccc(-c4cccnc4)n3)cc2)c1`
72

---

Listing of recorded kinase still bound, per cent of control by entry.
biological target: UniProt:Q12851; test: KINOMEscan competition binding; conditions: compound 1.0 µM
Sequence (Q12851 whole entry, looked up): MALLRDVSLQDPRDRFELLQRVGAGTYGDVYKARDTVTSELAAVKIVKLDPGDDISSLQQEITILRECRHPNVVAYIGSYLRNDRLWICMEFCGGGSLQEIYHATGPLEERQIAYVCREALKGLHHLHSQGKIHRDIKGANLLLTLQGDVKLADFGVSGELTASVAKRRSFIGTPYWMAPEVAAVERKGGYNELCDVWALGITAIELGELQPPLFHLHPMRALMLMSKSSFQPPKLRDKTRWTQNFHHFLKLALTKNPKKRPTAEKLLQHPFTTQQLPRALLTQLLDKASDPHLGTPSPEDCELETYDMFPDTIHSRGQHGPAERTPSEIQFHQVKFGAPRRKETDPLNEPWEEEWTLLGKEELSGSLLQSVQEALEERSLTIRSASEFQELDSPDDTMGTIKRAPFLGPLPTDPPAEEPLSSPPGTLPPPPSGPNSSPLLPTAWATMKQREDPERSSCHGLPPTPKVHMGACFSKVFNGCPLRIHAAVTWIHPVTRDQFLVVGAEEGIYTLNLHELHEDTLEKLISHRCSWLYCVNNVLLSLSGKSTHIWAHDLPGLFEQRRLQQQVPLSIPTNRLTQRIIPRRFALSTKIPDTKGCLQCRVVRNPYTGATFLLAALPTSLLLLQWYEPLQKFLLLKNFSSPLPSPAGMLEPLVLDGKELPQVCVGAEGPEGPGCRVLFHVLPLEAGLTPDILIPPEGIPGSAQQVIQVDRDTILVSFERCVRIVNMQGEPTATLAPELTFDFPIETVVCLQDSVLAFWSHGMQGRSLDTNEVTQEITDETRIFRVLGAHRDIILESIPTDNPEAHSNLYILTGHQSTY
Give the quantity in %, number only.

Example molecules with recorded kinase still bound, per cent of control:
>>> assay_result("Cc1cc(NC(=O)c2cccc(NC(=O)/C=C/CN(C)C)c2)ccc1Nc1nccc(-c2cccnc2)n1")
67
>>> assay_result("CN(C)C/C=C/C(=O)Nc1cccc(C(=O)Nc2ccc(Nc3nccc(-c4cccnc4)n3)cc2)c1")
9.9
>>> assay_result("CN(C)C/C=C/C(=O)Nc1cccc(C(=O)Nc2ccc(Nc3nccc(/C(C#N)=C4\\Nc5ccccc5S4)n3)cc2)c1")
100

Consider the record given below.
GET kinase still bound, per cent of control where system = UniProt:Q12851 and item = `CN(C)C/C=C/C(=O)Nc1cccc(C(=O)Nc2ccc(Nc3nccc(-c4c(-c5ccccc5)nn5ccccc45)n3)cc2)c1`
90

---

Listing of recorded kinase still bound, per cent of control by entry.
target: CDC42BPA (human) (UniProt Q5VT25); assay: KINOMEscan competition binding; conditions: compound 1.0 µM
// return the numeric value with its unit appended

>>> assay_result("CN(C)C/C=C/C(=O)Nc1cccc(C(=O)Nc2ccc(Nc3nccc(-c4cccnc4)n3)cc2)c1")
"100%"
>>> assay_result("CN(C)C/C=C/C(=O)Nc1cccc(C(=O)Nc2ccc(Nc3nccc(-c4c(-c5ccccc5)nn5ccccc45)n3)cc2)c1")
"13%"
>>> assay_result("Cc1cc(NC(=O)c2cccc(NC(=O)/C=C/CN(C)C)c2)ccc1Nc1nccc(-c2cccnc2)n1")
"100%"

Consider the record given below.
GET kinase still bound, per cent of control where system = CDC42BPA (human) (UniProt Q5VT25) and item = `CN(C)C/C=C/C(=O)Nc1cccc(C(=O)Nc2ccc(Nc3nccc(/C(C#N)=C4\Nc5ccccc5S4)n3)cc2)c1`
98%

---

target: UniProt:Q9Y616; assay: KINOMEscan competition binding; conditions: compound 1.0 µM
Sequence (Q9Y616 whole entry, looked up): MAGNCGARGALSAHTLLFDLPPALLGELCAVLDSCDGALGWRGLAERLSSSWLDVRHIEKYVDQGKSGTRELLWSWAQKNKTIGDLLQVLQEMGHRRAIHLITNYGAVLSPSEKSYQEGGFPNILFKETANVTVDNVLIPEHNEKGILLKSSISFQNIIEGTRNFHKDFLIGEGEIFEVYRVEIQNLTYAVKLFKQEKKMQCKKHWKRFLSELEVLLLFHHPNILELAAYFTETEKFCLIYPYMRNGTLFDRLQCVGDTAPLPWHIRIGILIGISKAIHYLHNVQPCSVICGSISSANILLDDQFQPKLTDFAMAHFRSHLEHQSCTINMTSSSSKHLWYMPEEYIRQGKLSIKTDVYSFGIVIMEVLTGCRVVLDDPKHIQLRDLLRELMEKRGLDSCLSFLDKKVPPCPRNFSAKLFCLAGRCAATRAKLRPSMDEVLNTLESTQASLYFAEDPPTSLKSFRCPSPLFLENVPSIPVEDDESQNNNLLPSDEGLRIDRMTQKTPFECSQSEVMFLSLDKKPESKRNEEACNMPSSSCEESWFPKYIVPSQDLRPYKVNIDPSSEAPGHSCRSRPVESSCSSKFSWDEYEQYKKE
REPORTED ENDPOINT: kinase still bound, per cent of control (%)
Give the quantity in %, number only.

>>> assay_result("CN(C)C/C=C/C(=O)Nc1cccc(C(=O)Nc2ccc(Nc3nccc(-c4c(-c5ccccc5)nn5ccccc45)n3)cc2)c1")
64
>>> assay_result("Cc1cc(NC(=O)c2cccc(NC(=O)/C=C/CN(C)C)c2)ccc1Nc1nccc(-c2cccnc2)n1")
85
>>> assay_result("CN(C)C/C=C/C(=O)Nc1cccc(C(=O)Nc2ccc(Nc3nccc(/C(C#N)=C4\\Nc5ccccc5S4)n3)cc2)c1")
51

Consider the record given below.
Supply kinase still bound, per cent of control value. Item: `CN(C)C/C=C/C(=O)Nc1cccc(C(=O)Nc2ccc(Nc3nccc(-c4cccnc4)n3)cc2)c1`
20

---

molecular target: KIT (human) (UniProt P10721); experiment: KINOMEscan competition binding; conditions: compound 1.0 µM
Sequence (P10721 whole entry, looked up): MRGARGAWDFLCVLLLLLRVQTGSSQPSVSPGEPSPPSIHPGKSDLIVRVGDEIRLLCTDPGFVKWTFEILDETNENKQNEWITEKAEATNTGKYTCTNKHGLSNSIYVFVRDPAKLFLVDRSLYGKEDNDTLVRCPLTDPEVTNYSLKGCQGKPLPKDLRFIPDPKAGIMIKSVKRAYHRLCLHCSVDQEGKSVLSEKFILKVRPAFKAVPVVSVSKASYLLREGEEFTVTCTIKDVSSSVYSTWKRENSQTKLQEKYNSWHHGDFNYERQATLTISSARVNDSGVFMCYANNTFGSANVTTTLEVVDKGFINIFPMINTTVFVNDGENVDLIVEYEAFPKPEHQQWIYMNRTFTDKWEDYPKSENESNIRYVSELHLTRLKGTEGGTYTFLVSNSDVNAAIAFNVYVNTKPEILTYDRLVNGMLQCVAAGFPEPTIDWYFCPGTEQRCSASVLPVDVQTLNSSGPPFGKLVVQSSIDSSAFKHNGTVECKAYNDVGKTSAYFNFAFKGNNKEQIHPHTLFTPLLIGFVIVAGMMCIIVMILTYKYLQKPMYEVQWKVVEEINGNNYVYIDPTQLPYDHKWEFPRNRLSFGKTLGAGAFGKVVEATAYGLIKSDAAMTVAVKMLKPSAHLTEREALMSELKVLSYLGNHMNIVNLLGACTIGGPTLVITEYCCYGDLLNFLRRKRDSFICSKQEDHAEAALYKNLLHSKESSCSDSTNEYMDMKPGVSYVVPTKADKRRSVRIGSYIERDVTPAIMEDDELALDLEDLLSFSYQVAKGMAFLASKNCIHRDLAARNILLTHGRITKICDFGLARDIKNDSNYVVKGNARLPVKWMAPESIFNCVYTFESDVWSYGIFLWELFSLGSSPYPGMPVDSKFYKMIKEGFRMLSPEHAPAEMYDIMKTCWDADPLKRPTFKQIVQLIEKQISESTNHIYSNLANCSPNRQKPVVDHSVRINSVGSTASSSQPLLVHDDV
Listing of recorded kinase still bound, per cent of control by entry.
Give the quantity in %, number only.

Supply kinase still bound, per cent of control value. Item: `Cc1cc(NC(=O)c2cccc(NC(=O)/C=C/CN(C)C)c2)ccc1Nc1nccc(-c2cccnc2)n1`
3.5

Supply kinase still bound, per cent of control value. Item: `CN(C)C/C=C/C(=O)Nc1cccc(C(=O)Nc2ccc(Nc3nccc(-c4cccnc4)n3)cc2)c1`
2.4

Supply kinase still bound, per cent of control value. Item: `CN(C)C/C=C/C(=O)Nc1cccc(C(=O)Nc2ccc(Nc3nccc(-c4c(-c5ccccc5)nn5ccccc45)n3)cc2)c1`
0.15

Supply kinase still bound, per cent of control value. Item: `CN(C)C/C=C/C(=O)Nc1cccc(C(=O)Nc2ccc(Nc3nccc(/C(C#N)=C4\Nc5ccccc5S4)n3)cc2)c1`
12

---

biological target: VRK2 (human) (UniProt Q86Y07); assay: KINOMEscan competition binding; details: compound 1.0 µM
Sequence (Q86Y07 whole entry, looked up): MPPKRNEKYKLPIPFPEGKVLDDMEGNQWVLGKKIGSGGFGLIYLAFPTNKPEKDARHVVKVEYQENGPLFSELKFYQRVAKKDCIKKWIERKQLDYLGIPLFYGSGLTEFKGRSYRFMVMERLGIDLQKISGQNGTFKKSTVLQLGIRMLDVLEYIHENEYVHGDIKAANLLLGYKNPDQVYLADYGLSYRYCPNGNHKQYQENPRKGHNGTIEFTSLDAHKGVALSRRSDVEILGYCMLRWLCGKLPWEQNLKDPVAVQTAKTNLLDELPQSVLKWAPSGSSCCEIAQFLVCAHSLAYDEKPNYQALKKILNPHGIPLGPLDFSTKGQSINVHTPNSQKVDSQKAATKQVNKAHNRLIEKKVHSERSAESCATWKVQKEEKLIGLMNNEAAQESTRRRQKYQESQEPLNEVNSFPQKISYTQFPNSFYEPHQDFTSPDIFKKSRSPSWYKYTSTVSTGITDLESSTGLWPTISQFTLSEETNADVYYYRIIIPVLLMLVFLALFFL
Listing of recorded kinase still bound, per cent of control by entry.
Give the quantity in %, number only.

Example molecules with recorded kinase still bound, per cent of control:
>>> assay_result("CN(C)C/C=C/C(=O)Nc1cccc(C(=O)Nc2ccc(Nc3nccc(-c4cccnc4)n3)cc2)c1")
98
>>> assay_result("CN(C)C/C=C/C(=O)Nc1cccc(C(=O)Nc2ccc(Nc3nccc(/C(C#N)=C4\\Nc5ccccc5S4)n3)cc2)c1")
100
>>> assay_result("Cc1cc(NC(=O)c2cccc(NC(=O)/C=C/CN(C)C)c2)ccc1Nc1nccc(-c2cccnc2)n1")
97

Consider the record given below.
GET kinase still bound, per cent of control where system = VRK2 (human) (UniProt Q86Y07) and item = `CN(C)C/C=C/C(=O)Nc1cccc(C(=O)Nc2ccc(Nc3nccc(-c4c(-c5ccccc5)nn5ccccc45)n3)cc2)c1`
85

---

biological target: BMPR1B (human); experiment: KINOMEscan competition binding; settings: compound 1.0 µM
REPORTED ENDPOINT: kinase still bound, per cent of control (%)
Give the quantity in %, number only.

Example molecules with recorded kinase still bound, per cent of control:
>>> assay_result("CN(C)C/C=C/C(=O)Nc1cccc(C(=O)Nc2ccc(Nc3nccc(-c4cccnc4)n3)cc2)c1")
43
>>> assay_result("Cc1cc(NC(=O)c2cccc(NC(=O)/C=C/CN(C)C)c2)ccc1Nc1nccc(-c2cccnc2)n1")
92
>>> assay_result("CN(C)C/C=C/C(=O)Nc1cccc(C(=O)Nc2ccc(Nc3nccc(/C(C#N)=C4\\Nc5ccccc5S4)n3)cc2)c1")
100

Consider the record given below.
GET kinase still bound, per cent of control where system = BMPR1B (human) and item = `CN(C)C/C=C/C(=O)Nc1cccc(C(=O)Nc2ccc(Nc3nccc(-c4c(-c5ccccc5)nn5ccccc45)n3)cc2)c1`
47

---

molecular target: CDKL1 (human) (UniProt Q00532); experiment: KINOMEscan competition binding; conditions: compound 1.0 µM
Sequence (Q00532 whole entry, looked up): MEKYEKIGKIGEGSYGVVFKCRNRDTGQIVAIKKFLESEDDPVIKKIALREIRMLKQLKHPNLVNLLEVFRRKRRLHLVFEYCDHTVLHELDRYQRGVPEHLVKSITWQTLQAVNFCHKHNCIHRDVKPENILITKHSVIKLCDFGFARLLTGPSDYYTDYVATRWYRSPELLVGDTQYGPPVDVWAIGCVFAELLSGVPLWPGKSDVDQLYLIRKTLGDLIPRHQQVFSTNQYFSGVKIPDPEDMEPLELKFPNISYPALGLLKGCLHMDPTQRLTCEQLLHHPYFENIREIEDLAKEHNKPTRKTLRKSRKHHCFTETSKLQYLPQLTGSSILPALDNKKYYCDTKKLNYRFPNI
REPORTED ENDPOINT: kinase still bound, per cent of control (%)
Give the quantity in %, number only.

>>> assay_result("Cc1cc(NC(=O)c2cccc(NC(=O)/C=C/CN(C)C)c2)ccc1Nc1nccc(-c2cccnc2)n1")
88
>>> assay_result("CN(C)C/C=C/C(=O)Nc1cccc(C(=O)Nc2ccc(Nc3nccc(-c4c(-c5ccccc5)nn5ccccc45)n3)cc2)c1")
100

Supply kinase still bound, per cent of control value. Item: `CN(C)C/C=C/C(=O)Nc1cccc(C(=O)Nc2ccc(Nc3nccc(/C(C#N)=C4\Nc5ccccc5S4)n3)cc2)c1`
66

Supply kinase still bound, per cent of control value. Item: `CN(C)C/C=C/C(=O)Nc1cccc(C(=O)Nc2ccc(Nc3nccc(-c4cccnc4)n3)cc2)c1`
54

---

molecular target: TAOK3 (human) (UniProt Q9H2K8); assay: KINOMEscan competition binding; details: compound 1.0 µM
Sequence (Q9H2K8 whole entry, looked up): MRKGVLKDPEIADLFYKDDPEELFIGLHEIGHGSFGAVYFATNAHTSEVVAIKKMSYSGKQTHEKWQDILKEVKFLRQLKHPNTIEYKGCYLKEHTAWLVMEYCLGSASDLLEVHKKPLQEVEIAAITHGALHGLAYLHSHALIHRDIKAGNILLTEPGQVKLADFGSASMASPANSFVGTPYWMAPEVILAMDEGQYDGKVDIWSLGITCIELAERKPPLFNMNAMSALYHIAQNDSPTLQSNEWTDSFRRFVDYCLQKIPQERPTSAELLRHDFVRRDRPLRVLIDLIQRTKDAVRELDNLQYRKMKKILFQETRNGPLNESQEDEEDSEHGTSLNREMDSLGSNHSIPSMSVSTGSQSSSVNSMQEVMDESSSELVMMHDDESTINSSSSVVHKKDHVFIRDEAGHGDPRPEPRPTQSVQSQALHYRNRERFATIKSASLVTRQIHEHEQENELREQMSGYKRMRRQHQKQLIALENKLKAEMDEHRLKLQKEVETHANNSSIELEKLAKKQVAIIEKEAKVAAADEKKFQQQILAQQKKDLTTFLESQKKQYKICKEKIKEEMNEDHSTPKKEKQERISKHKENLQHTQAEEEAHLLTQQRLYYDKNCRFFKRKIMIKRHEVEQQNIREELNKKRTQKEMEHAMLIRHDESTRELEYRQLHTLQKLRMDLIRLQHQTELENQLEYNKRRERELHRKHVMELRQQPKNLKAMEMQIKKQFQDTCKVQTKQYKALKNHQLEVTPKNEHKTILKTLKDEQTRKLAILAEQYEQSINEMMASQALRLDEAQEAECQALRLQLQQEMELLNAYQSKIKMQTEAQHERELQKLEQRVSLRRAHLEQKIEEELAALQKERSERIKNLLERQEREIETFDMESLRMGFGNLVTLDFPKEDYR
REPORTED ENDPOINT: kinase still bound, per cent of control

>>> assay_result("CN(C)C/C=C/C(=O)Nc1cccc(C(=O)Nc2ccc(Nc3nccc(/C(C#N)=C4\\Nc5ccccc5S4)n3)cc2)c1")
"100%"

GET kinase still bound, per cent of control where system = TAOK3 (human) (UniProt Q9H2K8) and item = `CN(C)C/C=C/C(=O)Nc1cccc(C(=O)Nc2ccc(Nc3nccc(-c4cccnc4)n3)cc2)c1`
94%

GET kinase still bound, per cent of control where system = TAOK3 (human) (UniProt Q9H2K8) and item = `CN(C)C/C=C/C(=O)Nc1cccc(C(=O)Nc2ccc(Nc3nccc(-c4c(-c5ccccc5)nn5ccccc45)n3)cc2)c1`
42%

GET kinase still bound, per cent of control where system = TAOK3 (human) (UniProt Q9H2K8) and item = `Cc1cc(NC(=O)c2cccc(NC(=O)/C=C/CN(C)C)c2)ccc1Nc1nccc(-c2cccnc2)n1`
66%

---

tested on: EGFR (human), P00533 [G719S]; test: KINOMEscan competition binding; settings: compound 1.0 µM
Listing of recorded kinase still bound, per cent of control by entry.
Give the quantity in %, number only.

>>> assay_result("CN(C)C/C=C/C(=O)Nc1cccc(C(=O)Nc2ccc(Nc3nccc(-c4c(-c5ccccc5)nn5ccccc45)n3)cc2)c1")
1.8
>>> assay_result("CN(C)C/C=C/C(=O)Nc1cccc(C(=O)Nc2ccc(Nc3nccc(/C(C#N)=C4\\Nc5ccccc5S4)n3)cc2)c1")
100
>>> assay_result("CN(C)C/C=C/C(=O)Nc1cccc(C(=O)Nc2ccc(Nc3nccc(-c4cccnc4)n3)cc2)c1")
78

Consider the record given below.
Supply kinase still bound, per cent of control value. Item: `Cc1cc(NC(=O)c2cccc(NC(=O)/C=C/CN(C)C)c2)ccc1Nc1nccc(-c2cccnc2)n1`
90
